Target: T1, human EphA4 (Homo sapiens, UniProt P54764)
T1 construct: made in house; not restated for the human SEAP-His protein
T1 sequence (P54764 20-547): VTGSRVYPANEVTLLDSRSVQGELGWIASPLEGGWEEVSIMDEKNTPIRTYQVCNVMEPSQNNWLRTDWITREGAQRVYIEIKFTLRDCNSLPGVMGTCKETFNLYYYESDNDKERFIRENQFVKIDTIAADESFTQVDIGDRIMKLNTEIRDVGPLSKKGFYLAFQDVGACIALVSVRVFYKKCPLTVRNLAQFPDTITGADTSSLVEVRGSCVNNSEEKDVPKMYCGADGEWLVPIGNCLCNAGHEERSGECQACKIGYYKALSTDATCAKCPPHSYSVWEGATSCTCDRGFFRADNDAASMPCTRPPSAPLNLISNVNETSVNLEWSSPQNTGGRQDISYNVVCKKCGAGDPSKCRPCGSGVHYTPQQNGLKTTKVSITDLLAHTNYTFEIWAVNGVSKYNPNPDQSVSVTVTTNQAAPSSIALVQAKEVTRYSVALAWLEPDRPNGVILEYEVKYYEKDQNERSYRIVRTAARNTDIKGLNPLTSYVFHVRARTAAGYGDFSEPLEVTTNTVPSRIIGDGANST
Test: Affinity of humanized antibodies by SPR (Biacore T200)
Assay type: binding
Details: human EphA4 extracellular region-SEAP-His; 1:1 binding model
Reported metric: kd (s⁻¹)
Enter your answer as a number in s⁻¹; do not include the unit.

91 (antibody, V domains shown, constant regions without entry; synthetic humanized antibody light chain variable region sequence; synthetic humanized antibody heavy chain variable region sequence) VL: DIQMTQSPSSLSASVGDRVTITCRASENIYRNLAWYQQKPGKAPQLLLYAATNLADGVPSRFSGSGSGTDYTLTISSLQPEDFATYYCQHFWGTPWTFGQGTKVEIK VH: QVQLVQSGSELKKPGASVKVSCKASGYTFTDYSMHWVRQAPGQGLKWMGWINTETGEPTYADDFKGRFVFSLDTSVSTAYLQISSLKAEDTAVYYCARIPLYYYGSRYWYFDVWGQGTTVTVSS | 0.00044

We next turn to a different molecule, shown below.
Report kd for 76 (antibody, V domains shown, synthetic humanized antibody heavy chain variable region sequence; synthetic humanized antibody light chain variable region sequence) VH: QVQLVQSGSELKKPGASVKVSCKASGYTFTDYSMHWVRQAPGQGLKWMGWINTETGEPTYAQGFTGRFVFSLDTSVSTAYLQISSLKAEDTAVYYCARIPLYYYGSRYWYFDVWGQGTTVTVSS VL: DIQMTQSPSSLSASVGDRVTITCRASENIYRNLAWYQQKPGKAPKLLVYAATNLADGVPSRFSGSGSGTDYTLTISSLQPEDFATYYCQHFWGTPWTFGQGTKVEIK 0.00034
